These measurements were taken from patent US20250114389A1.

- Test system: human PBM cells
- PROTOCOL_NOTES: Cytotoxicity in PBM cells
- Format: cell-based
RECORDED_ENDPOINT: CC50 (µM)
Report only the number, with the unit µM understood.

Write down the reported CC50 of CCC(CC)COC(=O)[C@H](C)N[P@](=O)(OC[C@H]1O[C@@](C#N)(c2ccc3c(N)ncnn23)[C@H](O)[C@@H]1O)Oc1ccccc1 [Remdesivir, reference compound] , test system: human PBM cells. 6.4

###

- PROTOCOL_NOTES: Non-compartmental PK analysis of IV and oral Compound A in mice
- Format: in vivo
- CONDITION_NOTES: mouse, plasma, 15 mg/kg, IV dose, read-out: mean terminal t1/2 (converted)
RECORDED_ENDPOINT: half-life (h)
Report only the number, with the unit h understood.

For the compound shown here, N#C[C@@]1(n2ccc(N)nc2=O)O[C@H](CO)[C@@H](O)[C@H]1O , give the reported half-life. 2.23
